From: patent US20090182039A1

biological target: Human Na+-glucose cotransporter (human SGLT2) (Homo sapiens, UniProt P31639); assay: Inhibition of methyl-α-D-glucopyranoside intake in CHO cells stably expressing human SGLT2; details: stated as equivalent to the value of Example 75 of Patent Document 1
Sequence (P31639 whole entry): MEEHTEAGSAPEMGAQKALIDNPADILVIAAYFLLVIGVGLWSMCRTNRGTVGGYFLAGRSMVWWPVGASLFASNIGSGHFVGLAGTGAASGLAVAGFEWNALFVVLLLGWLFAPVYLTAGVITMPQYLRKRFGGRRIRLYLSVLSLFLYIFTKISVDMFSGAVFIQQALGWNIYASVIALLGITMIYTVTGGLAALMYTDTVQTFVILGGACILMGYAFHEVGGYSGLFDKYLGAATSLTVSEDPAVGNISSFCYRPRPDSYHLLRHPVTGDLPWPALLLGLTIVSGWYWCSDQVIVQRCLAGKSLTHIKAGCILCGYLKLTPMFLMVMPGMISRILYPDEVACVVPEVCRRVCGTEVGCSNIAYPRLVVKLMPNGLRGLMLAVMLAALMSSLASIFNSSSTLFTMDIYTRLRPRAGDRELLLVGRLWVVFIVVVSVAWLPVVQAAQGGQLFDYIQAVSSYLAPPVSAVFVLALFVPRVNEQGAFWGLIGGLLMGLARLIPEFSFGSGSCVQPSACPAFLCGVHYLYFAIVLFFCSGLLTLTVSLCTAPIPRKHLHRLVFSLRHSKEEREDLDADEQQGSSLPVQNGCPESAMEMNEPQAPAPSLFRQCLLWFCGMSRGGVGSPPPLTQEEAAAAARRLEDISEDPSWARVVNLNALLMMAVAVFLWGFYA
recorded.endpoint: IC50

For this compound ( `OC[C@H]1O[C@@H](c2cc(Cc3cc4cccccc-4c3)ccc2O)[C@H](O)[C@@H](O)[C@@H]1O` ), measured IC50 is ~8.9 nM
